From: PubChem BioAssay AID1159580

Recorded normalized growth by entry
- ASSAY: chemical genetic growth profiling, strain panel (AID 1159580);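 also: tested at 20 µM; growth read once vehicle control cultures reached saturation at 30 °C; 1 = growth at the plate median or of vehicle wells; lower values mean less growth of the strain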
- EXPERIMENTAL PARAMETERS: S. cerevisiae deletion strains, growth OD, locus YER016W, strain bim1, hits give low values
Screen size: about 5,500 compounds; about 2,000 (36%) were called active. Another 18% or so got no clear call; they are omitted. This is one part of the list.
No unit in the answer, only the number.

Lookup result for C[N+]1(C)CCc2cc3c(cc2[C@H]1C1OC(=O)c2c1ccc1c2OCO1)OCO3 (stereo partly specified) ; measured normalized growth: 1

Reported normalized growth for CC(C)CCCC(C)[C@H]1CCC2C3CC[C@H]4CC(=O)CC[C@]4(C)C3CC[C@@]21C (stereo partly specified) was 0.985

The molecule listed as "C=C(C)c1cc2cc(C(C)=O)c(O)cc2o1" has a reported normalized growth of 0.975

For record "c1ccc2c(c1)[nH]c1cnccc12" the listed normalized growth is 0.992

Measured normalized growth, "COc1ccc2c(c1)[nH]c1c(C)nccc12" : 0.997

Lab note: measured normalized growth of "Cc1nccc2c1[nH]c1ccccc12" was 0.984

---

# key: entry, value: normalized growth
- ASSAY: chemical genetic growth profiling, strain panel (AID 1159580);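 also: tested at 20 µM; growth read once vehicle control cultures reached saturation at 30 °C; 1 = growth at the plate median or of vehicle wells; lower values mean less growth of the strain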
- EXPERIMENTAL PARAMETERS: S. cerevisiae deletion strains, growth OD, locus YMR223W, strain ubp8, hits give low values
The campaign covered roughly 5,500 compounds. About 2,000 (36%) were called active. Roughly 18% stayed inconclusive and do not appear here. The list shows a part of the results.
# respond with the number and nothing more

Check out these entries, answers already filled in.
Form field normalized growth, entry "N#C/C(=C\c1ccc(O)cc1)C(=O)O" : 1.04

Per the records, this compound ( "CCOc1ccc(Cc2nccc3cc(OCC)c(OCC)cc23)cc1OCC" ) has normalized growth equal to 0.971

Documented normalized growth of "COc1cc2ccc(=O)oc2c(OC)c1OC" : 0.999

---
Measured normalized growth of CSCCC(NC=O)C(=O)NC(CC(C)C)C(=O)NC(Cc1ccccc1)C(=O)O (stereo unspecified) : 1

Value of normalized growth reported for the compound "COc1ccc(Cc2nccc3cc(OC)c(OC)cc23)cc1OC" is 0.987

For record "COc1cc2ccc(=O)oc2c(O)c1O" the listed normalized growth is 1.01

---

Catalogue of normalized growth readings, one per entry.
- ASSAY: chemical genetic growth profiling, strain panel (AID 1159580);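 also: tested at 20 µM; growth read once vehicle control cultures reached saturation at 30 °C; 1 = growth at the plate median or of vehicle wells; lower values mean less growth of the strain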
- EXPERIMENTAL PARAMETERS: S. cerevisiae deletion strains, growth OD, locus YML094W, strain GIM5, hits give low values
In all, about 5,500 compounds went through this assay and about 2,000 (36%) were called active. Roughly 18% stayed inconclusive and do not appear here. Some of the results follow.
// response body must contain only the number

Noted for "COc1cc(NC(=O)Nc2ccc(OC(F)(F)F)cc2)cc(C(F)(F)F)c1" : its normalized growth reads 0.919

What the record says about "COC(=O)Cc1nc(NC(=O)c2ccccc2)sc1C" : normalized growth is 0.948

Per the record, "CC(C)(C)c1ccc(C(=O)N/N=C\c2cc(Cl)cc(Cl)c2O)cc1" has normalized growth of 0.645

New cases:
The recorded normalized growth for entry CC(NC(=S)Nc1ccc(Oc2ccc(Cl)cc2)cc1)c1ccccc1 (configuration not stated) equals 0.905

The recorded normalized growth for CC(O)CNc1ccc(C(F)(F)F)cc1[N+](=O)[O-] (configuration not stated) is 0.947

Record "CCC(=O)Oc1ccc(NC(=S)NCCCO)cc1" . Reported normalized growth: 1.04

Lookup result for "Cc1ccc(C(=O)NNC(=O)c2ccncc2)c(C)c1" ; measured normalized growth: 0.983

Looking up "N#C/C(=C\Nc1ccc2c(c1)OCCO2)S(=O)(=O)c1ccc(C(F)(F)F)cn1" , I see its normalized growth listed as 0.906

Reported normalized growth of "c1ccc2c(c1)-c1cccc3cccc-2c13" : 0.757

Measured normalized growth, "N/C(=N/OC(=O)C(Cl)Cl)c1cccc(Cl)c1Cl" : 1.03

# normalized growth (compound: O=C(NC(c1ccccc1)C(N=Cc1ccccc1)c1ccccc1)c1ccccc1 (configuration not stated) ) is 1.01

Field normalized growth (entry "CC(=O)/C(=C\N(C)C)Sc1nnc(C(F)(F)F)n1C" ) reads 1.06

Measured normalized growth, "CC(=O)CC(C)=Nc1ccc(C(F)(F)F)cc1" : 0.993

Lab note: measured normalized growth of "COc1ccc(/C(C)=N\NC2=NCCCN2)cc1" was 1.08

The compound identified as "CCSC(SCC)[C@H](O)[C@@H](O)[C@H](O)CO" registered its normalized growth at 1.02

Entry "O=C(O)C12CC3CC(CC(Br)(C3)C1)C2" — recorded normalized growth = 0.991

// normalized growth lookup, compound = "Cc1cc(N=CNO)c2ccccc2n1" , result: 1.01

Record "NC(=S)Nc1cc(Cl)ccc1Cl" , field normalized growth: 0.915

Documented normalized growth of "CCn1cc([N+](=O)[O-])nc1C" : 0.968

Consider "Cc1oc(-c2ccccc2)cc1C(=O)N1CCN(c2ccc(C(F)(F)F)cn2)CC1" . Its measured normalized growth is 0.875

Sample "O=C1CCC(=O)N1CNc1ccccc1OC(F)(F)F" ; normalized growth observed: 1.02

Noted for "CCOC(=O)c1c(Nc2ccccc2)sc([N+](=O)[O-])c1N" : its normalized growth reads 0.961

Reported normalized growth of O=[N+]([O-])c1ccc(C2N(Cc3ccccc3)CCC3CCCCN32)cc1 (configuration not stated) : 0.983

For reference, reported normalized growth for "NNC(=S)Nc1cc(C(F)(F)F)ccc1Cl" stands at 0.81

Field normalized growth (entry "N#C/C(=N/Nc1ccc(C(F)(F)F)cc1)C(=O)C1CC1" ) reads 0.841

// normalized growth lookup, compound = "COc1ccc(-n2c(SCc3ccc(Br)cc3)nnc2-c2ccco2)cc1" , result: 0.993

Looking up "CC(C)(C)c1cc(C(C)(C)C)n(-c2ccc([N+](=O)[O-])cc2)n1" , I found its normalized growth recorded as 1.04

Record summary for "N#CC(C#N)=CNc1cc(C(F)(F)F)ccc1N1CCCCC1" : reported normalized growth = 0.989
